assayed.system: FAK (Homo sapiens, UniProt Q05397)
Sequence (Q05397 whole entry): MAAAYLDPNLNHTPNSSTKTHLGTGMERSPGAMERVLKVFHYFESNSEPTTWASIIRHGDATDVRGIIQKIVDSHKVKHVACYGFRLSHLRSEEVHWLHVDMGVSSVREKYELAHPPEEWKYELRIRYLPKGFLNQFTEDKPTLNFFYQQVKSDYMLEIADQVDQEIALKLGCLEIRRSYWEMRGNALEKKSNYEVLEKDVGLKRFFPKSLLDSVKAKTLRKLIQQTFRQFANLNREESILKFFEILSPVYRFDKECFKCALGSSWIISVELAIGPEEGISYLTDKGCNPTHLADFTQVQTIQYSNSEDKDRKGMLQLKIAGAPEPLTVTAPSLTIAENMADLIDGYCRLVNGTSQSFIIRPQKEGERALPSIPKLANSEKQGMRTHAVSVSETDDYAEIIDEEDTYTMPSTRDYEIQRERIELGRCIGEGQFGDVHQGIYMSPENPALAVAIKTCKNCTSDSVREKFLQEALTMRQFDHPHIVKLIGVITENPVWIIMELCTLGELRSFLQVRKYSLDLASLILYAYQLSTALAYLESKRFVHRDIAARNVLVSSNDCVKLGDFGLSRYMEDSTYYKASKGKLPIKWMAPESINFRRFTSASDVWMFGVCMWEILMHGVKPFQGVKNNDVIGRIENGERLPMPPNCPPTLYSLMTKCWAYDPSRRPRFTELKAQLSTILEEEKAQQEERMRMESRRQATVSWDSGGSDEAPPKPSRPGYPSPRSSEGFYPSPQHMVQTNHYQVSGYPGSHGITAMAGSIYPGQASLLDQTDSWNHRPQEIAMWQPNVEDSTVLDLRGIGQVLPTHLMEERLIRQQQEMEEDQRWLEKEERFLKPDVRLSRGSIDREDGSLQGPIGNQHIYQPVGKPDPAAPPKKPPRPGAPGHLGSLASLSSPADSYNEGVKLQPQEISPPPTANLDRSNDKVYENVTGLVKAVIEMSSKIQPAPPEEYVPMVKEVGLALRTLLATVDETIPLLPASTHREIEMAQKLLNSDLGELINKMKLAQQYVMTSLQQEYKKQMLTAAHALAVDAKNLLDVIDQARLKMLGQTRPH
procedure.details: Cell-based capture ELISA for inhibition of FAK autophosphorylation [pY397] in MiaPaCa2 cells
assay.conditions: MIA-PaCa2 cells on fibronectin, 2 h, no plasma; read-out: Mean FAK Cell Mechanistic IC50 MIA-PaCa2
I'd appreciate it if you could supply IC50 values for the items below.

Identify measured IC50 associated with CNC(=O)c1ccccc1Nc1nc(Nc2cccc(CP(C)(C)=O)c2)ncc1C(F)(F)F [Example 17]
< 1000 nM

Identify measured IC50 corresponding to CCOP(C)(=O)Cc1ccc(Nc2ncc(C(F)(F)F)c(Nc3ccc(-c4cnn(C[C@@H](O)CO)c4)c4c3C(=O)N(C)C4)n2)cc1 (some centres unmarked) [Example 65]
< 1000 nM

Return the recorded IC50 value; entry: CN(c1ncccc1CNc1nc(Nc2cccc(P(C)(C)=O)c2)ncc1C(F)(F)F)S(C)(=O)=O [Example 15]
< 1000 nM

Answer with the recorded IC50 for the molecule listed here: CN(c1ncccc1CNc1nc(Nc2cccc(CP(=O)(O)O)c2)ncc1C(F)(F)F)S(C)(=O)=O [Example 43]
1000 to 10000 nM

From here, focus on the item given below.
Recall and state the measured IC50 for CCOP(C)(=O)Cc1ccc(Nc2ncc(C(F)(F)F)c(NCc3cccnc3N(C)S(C)(=O)=O)n2)cc1 (centres unmarked) [Example 45] .
< 1000 nM
